Every entry's value here was drawn from ChEMBL document CHEMBL1136985.

system: Human immunodeficiency virus 1; assay: Antiviral activity against HIV1 NL4-3 with K103N/V108I double mutant in human TZM-b1 cells assessed as beta-galactosidase activity after 48 hrs by single round replication assay; settings: Human immunodeficiency virus 1, NL4-3, TZM-b1, 48 h
pEC50: −log10 of the molar value.
readout: pEC50

Query block: Please give the measured pEC50 for this molecule: "CCc1c(C)[nH]c(=O)c(N(C)C)c1O[C@@H]1C[C@H](C)C[C@H](C)C1"
Result block: < 5.00

Query block: Give its pEC50 value. Item: Cc1ccnc2c1NC(=O)c1cccnc1N2C1CC1 [NEVIRAPINE]
Result block: < 5.00

Query block: Quick check: pEC50 of "CCc1c(C)[nH]c(=O)c([N+](=O)[O-])c1O[C@@H]1C[C@H](C)C[C@H](C)C1" ?
Result block: < 5.00

* * *

experiment: Selectivity index, ratio of CC50 for human TZM-b1 cells to EC50 for HIV1 NL4-3; type: toxicity, cell-based; details: read-out: Ratio CC50/EC50
readout: selectivity ratio

Query block: Could you tell me which selectivity ratio is on file for "CCc1c(C)[nH]c(=O)c(C(C)(C)O)c1O[C@@H]1C[C@H](C)C[C@H](C)C1" ?
Result block: > 100000

Query block: Which selectivity ratio is listed for "CCc1c(C)[nH]c(=O)c(CN=[N+]=[N-])c1O[C@@H]1C[C@H](C)C[C@H](C)C1" ?
Result block: > 54000

Query block: Which selectivity ratio is reported for this molecule? "CCc1c(C)[nH]c(=O)c(C)c1O[C@@H]1C[C@H](C)C[C@H](C)C1"
Result block: 40000

Query block: Can you share its selectivity ratio? I mean this molecule: "CCOC(=O)c1c(OC2CCCCC2)c(CC)c(C)[nH]c1=O"
Result block: > 435

Query block: selectivity ratio lookup needed for "CCOC(=O)c1c(OC2CCCC2)c(CC)c(C)[nH]c1=O" , thanks.
Result block: > 135

Query block: What does the data say about its selectivity ratio? Entry: "CCOC(=O)c1c(OC2CCCCCC2)c(CC)c(C)[nH]c1=O"
Result block: 205

Query block: I have this molecule here, "CCc1c(C)[nH]c(=O)c(N(C)C)c1O[C@@H]1C[C@H](C)C[C@H](C)C1" , and I need its recorded selectivity ratio.
Result block: > 66000

Query block: May I ask what selectivity ratio has been recorded for "CCOC(=O)c1c(OC2CCCCCCC2)c(CC)c(C)[nH]c1=O" ?
Result block: 83
